Listing of entries alongside the reported melting point.

Here is how some compounds turned out for melting point.
[[record]]
query_smiles = "CC1(C(=O)Nc2nc(-c3ccco3)c(C(=O)c3ccccn3)s2)CC1"
recorded_measurement = "195 to 196 °C"

[[record]]
query_smiles = "O=C(Nc1nc(-c2ccco2)c(C(=O)c2ccccn2)s1)c1cnc2occc2c1"
recorded_measurement = "234 to 235 °C"

[[record]]
query_smiles = "Cn1cc(C(=O)Nc2nc(-c3ccco3)c(C(=O)c3ccccc3)s2)ccc1=O"
recorded_measurement = "220 to 225 °C"

[[record]]
query_smiles = "O=C(Nc1nc(-c2ccco2)c(C(=O)c2ccc(=O)n(Cc3ccccc3)c2)s1)c1ccncc1"
recorded_measurement = "265 to 282 °C (dec.)"

[[record]]
query_smiles = "CC(C)C(=O)c1sc(NC(=O)C2CC2)nc1-c1ccco1"
recorded_measurement = "178 to 182 °C"

[[record]]
query_smiles = "O=C(CNC12CC3CC(CC(C3)C1)C2)Nc1nc(-c2ccco2)c(C(=O)C2CCOCC2)s1"
recorded_measurement = "168 to 170 °C"

[[record]]
query_smiles = "Cc1ncc(C(=O)Nc2nc(-c3ccco3)c(C(=O)C3CCSCC3)s2)cn1"
recorded_measurement = "238 to 240 °C"

[[record]]
query_smiles = "CC(C)n1nc(-c2sc(NC(=O)c3ccncc3)nc2-c2ccco2)ccc1=O"
recorded_measurement = "190 to 194 °C"

[[record]]
query_smiles = "O=C(Nc1nc(-c2ccco2)c(C(=O)c2ccccn2)s1)c1cccs1"
recorded_measurement = "197 to 199 °C"

[[record]]
query_smiles = "CC(C)(C)NC(=O)Nc1nc(-c2ccco2)c(C(=O)c2ccccn2)s1"
recorded_measurement = "123 to 124 °C"


Query: melting point; subject: CCCC(=O)c1sc(NC(=O)c2ccco2)nc1-c1ccco1
172 to 176 °C

Looking for the measured melting point of O=C(Nc1nc(-c2ccco2)c(C(=O)c2ccccn2)s1)c1ccnnc1 , can you help?
270 to 274 °C

Entry CCCC(=O)c1sc(NC(=O)C2CC2)nc1-c1ccco1 has what melting point?
170 to 172 °C

So what does the record say about melting point for N#Cc1ccc(C(=O)Nc2nc(-c3ccco3)c(C(=O)c3cccnc3)s2)cc1 ?
288 to 290 °C

Endpoint output: melting point of O=C(Nc1nc(-c2ccco2)c(C(=O)c2ccn(Cc3ccccc3)c2)s1)c1ccncc1 . Value?
175 to 178 °C
